- study_system: T1, recombinant heparanase captured with rabbit anti-heparanase antibody (Homo sapiens, UniProt Q9Y251)
- T1 construct: Heparanase 8 and 50 kDa sub-units were cloned into pacGP67 as Sma 1-EcoR1 fragments; made in house; host or cells: Hi5 insect cells, baculovirus (pFastBac Dual)
- T1 sequence (Q9Y251 158-543 limits assumed): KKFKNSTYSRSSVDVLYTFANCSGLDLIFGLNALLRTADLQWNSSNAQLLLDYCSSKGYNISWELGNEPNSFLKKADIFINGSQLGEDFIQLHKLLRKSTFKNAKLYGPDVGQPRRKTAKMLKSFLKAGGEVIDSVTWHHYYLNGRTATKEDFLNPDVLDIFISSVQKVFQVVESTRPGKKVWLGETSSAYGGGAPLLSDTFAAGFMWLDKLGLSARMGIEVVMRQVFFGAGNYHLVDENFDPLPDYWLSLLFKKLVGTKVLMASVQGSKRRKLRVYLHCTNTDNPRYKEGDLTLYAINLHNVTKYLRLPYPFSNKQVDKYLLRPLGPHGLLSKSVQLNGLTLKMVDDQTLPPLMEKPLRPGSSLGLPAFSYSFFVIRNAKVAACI
- T1 sequence (Q9Y251 36-109 limits assumed): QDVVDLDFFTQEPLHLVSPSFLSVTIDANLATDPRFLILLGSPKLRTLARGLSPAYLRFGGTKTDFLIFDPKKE
- method_notes: ELISA binding to antibody-captured heparanase
- applied_conditions: antibody capture
test_readout: Binding to captured heparanase (OD units)
Answers are plain numbers, in OD units.

Example results:
- molecule: "10E9.1: fully human anti-heparanase monoclonal antibody, G2κ; VH SEQ ID NO 2, VL SEQ ID NO 4; ATCC PTA-9489 (antibody, listed as Homo Sapiens, V domains shown, fully human anti-heparanase monoclonal antibody, G2κ; ATCC PTA-9489) VH: QVQLVQSGAEVKKPGASVKVSCKVSGYSLTELSIHWVRQAPGKGLEWMGGFDPEDGEIIFAQKFQGRVTLTEDISLDTAYMEVSSLRSEDTAVYYCATEGHDSGDYVGYYYYGLDVWGQGTTVTVSS VL: DIQMTQSPSSLSASVGDRVTITCRASQDIRNFLAWYQQKPGKLPKLLIYAASTLQSGVPSRFSGSGSGTDFTLTISSLQPEDVASYYCQSHNSVPFTFGPGTKVDIR"
  value_observed: 0.87
- molecule: "16G1.1: human anti-heparanase monoclonal antibody, G4κ; VH SEQ ID NO 14, VL SEQ ID NO 16 (antibody, listed as Homo Sapiens, V domains shown) VH: QVQLVESGGGVVQPGRSLRLSCAASGFTFSSYGMHWVRQAPGKGLEWVAVIWYDGSNKYYADSVKGRFTISRDNSKNTLNLQMNSLRAEDTAVYYCGRDPGTYHYYYHGMDVWGQGTTVTVSS VL: YIVMTQSPLSLPVTPGEPASISCRSSQSLLHSNGYNFLDWYLQKPGQSPQLLIYLGSNRASGVPDRFSGSGSGTDFTLKINRVEAEDVGVYYCMQALQTPITFGQGTRLEIK"
  value_observed: 3.82

# input for lookup
Req: Can you look up the measured Binding to captured heparanase of 15A11.1: fully human anti-heparanase monoclonal antibody, G2κ; VH SEQ ID NO 10, VL SEQ ID NO 12; ATCC PTA-9490 (antibody, listed as Homo Sapiens, V domains shown, fully human anti-heparanase monoclonal antibody, G2κ; ATCC PTA-9490) VH: QVQLVQSGAEVKKPGASVKVSCKVSGDTLTELSMHWVRQTPGKGLEWMGGFDPEDGETIYAQKFQGRVTMTGDTSTDTAYMELSSLRSEDTAVYYCATEGDYGDSEEYYYYYGMDVWGQGTTVTVSS VL: DIQMTQSPSSLSASVGDRVTITCRASQGISNYLAWYQQKPGKVPKLLIYAASTLQSGVPSRFSGSGSGTDFTLTISSLQPEDVATYYCQKYNRAPFTFGPGTKVDIK for me?
Resp: 0.5
